The reported measurements were obtained from paper PMC10786891.

- test_system: T1, EsCas13d, nuclease-dead (Eubacterium siraeum, UniProt B0MS50, R295A;H300A;R849A;H854A)
- T1 sequence: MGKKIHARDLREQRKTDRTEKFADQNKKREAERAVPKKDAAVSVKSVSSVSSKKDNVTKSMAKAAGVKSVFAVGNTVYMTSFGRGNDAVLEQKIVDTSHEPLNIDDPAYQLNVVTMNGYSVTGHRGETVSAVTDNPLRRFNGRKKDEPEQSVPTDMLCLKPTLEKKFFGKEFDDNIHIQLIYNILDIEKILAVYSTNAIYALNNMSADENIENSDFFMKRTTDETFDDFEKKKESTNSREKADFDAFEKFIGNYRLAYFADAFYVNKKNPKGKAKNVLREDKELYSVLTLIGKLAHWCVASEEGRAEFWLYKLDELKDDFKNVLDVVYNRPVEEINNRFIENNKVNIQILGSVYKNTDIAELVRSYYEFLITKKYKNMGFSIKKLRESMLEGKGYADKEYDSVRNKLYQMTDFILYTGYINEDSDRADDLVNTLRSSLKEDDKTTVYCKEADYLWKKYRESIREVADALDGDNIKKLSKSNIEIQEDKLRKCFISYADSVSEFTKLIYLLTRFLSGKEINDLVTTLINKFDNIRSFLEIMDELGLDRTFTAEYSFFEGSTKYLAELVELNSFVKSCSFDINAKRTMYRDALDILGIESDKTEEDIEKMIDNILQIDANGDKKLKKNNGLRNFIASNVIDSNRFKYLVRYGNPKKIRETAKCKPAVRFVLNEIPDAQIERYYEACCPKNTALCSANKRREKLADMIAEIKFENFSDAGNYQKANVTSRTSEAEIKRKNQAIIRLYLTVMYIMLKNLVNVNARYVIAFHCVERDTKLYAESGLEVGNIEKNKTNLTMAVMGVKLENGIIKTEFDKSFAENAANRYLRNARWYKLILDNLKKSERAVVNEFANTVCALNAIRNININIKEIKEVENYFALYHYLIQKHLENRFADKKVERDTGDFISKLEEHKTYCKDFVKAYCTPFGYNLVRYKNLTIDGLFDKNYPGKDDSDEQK
- test_details: crRNA (strand 1, pre-loaded); Mg2+; 40 mM Tris-HCl pH 7.5, 150 mM NaCl, 6 mM MgCl2, 1 mM DTT, 0.1% Tween-20, 0.2 mg/ml BSA; 25 C; 10 min per concentration, then washed
- condition_summary: tags: His6-TwinStrep-SUMO cleaved; N-terminal SNAP kept (SNAP-Surface 488); label: 3' end held by stalled T7 RNA polymerase
experimental_readout: Kd (µM)
The figure you give is taken to be in µM; do not add the unit.

Req: Can you share its Kd? I mean this binder: target 1 MT 5'PFS GGG 3'PFS UGA (mixed) RNA 1: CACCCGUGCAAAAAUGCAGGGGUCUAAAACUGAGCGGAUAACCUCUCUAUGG RNA 2: GGGAAUGGAUCCACAUCUACGAAUUCGGGCCAUAGAGAGGUUAUCCGCUCAUGAAGAUCGGAAGAGCACACGU
Resp: 0.0245
